Below is a list of entries, each paired with its recorded IC50 value.
tested on: HT-29; assay: Cytotoxicity against human HT-29 cells assessed inhibition of cell proliferation after 3 days by MTT assay; conditions: HT-29, 72 h
# number only, unit µg/mL dropped from output

INSERT INTO results (smiles_str, unit_symbol, observed) VALUES
  ('COc1cccc(/C=C/c2cccc(N)c2)c1', 'µg/mL', 19.6),
  ('Nc1cccc(/C=C/c2ccccc2O)c1', 'µg/mL', 30.4);

Query: GET IC50 where system = HT-29 and item = `Nc1ccccc1/C=C/c1cccc(O)c1`
Reply: 30

Query: GET IC50 where system = HT-29 and item = `Nc1ccc(/C=C/c2ccc(O)cc2)cc1`
Reply: 30.6

FYI, the data here is from ChEMBL document CHEMBL3734660.
